Field: mortality at 200 ppm. Provide a value for each of the compounds that follow.
Tested on: Thrips tabaci
Assay: Thrips tabaci (onion thrips) sunflower leaf disc spray test
Type: in vivo
Applied conditions: foliar, 144 h, application rate 200 ppm, population of mixed ages, 6 days after infestation
Method: Thrips tabaci (Onion Thrips): Sunflower leaf discs were placed on agar in 24-well microtiter plates and sprayed with aqueous test solutions prepared from 10′000 ppm DMSO stock solutions. After drying the leaf discs were infested with a Thrips population of mixed ages. The samples were assessed for mortality 6 days after infestation.

// worked examples, mortality at 200 ppm included
# Compound, Target of assay, mortality at 200 ppm
measured = [
    ("CN(C(=O)c1cc(-c2cn(-c3c(C(F)(F)F)c(C(F)(F)C(F)(F)F)nn3C)nn2)sc1C#N)C1CC1 [Compound 2]", "Thrips tabaci", "≥ 80%"),
    ("Cn1nc(C(F)(F)C(F)(F)F)c(C(F)(F)F)c1-n1cc(-c2cc(C(=O)NC3CC3)c(Cl)s2)nn1 [Compound 7]", "Thrips tabaci", "≥ 80%"),
    ("CN(C(=O)c1cc(-c2cc(-c3c(C(F)(F)F)c(C(F)(F)C(F)(F)F)nn3C)no2)sc1C#N)C1CC1 [Compound 14]", "Thrips tabaci", "≥ 80%"),
    ("CCN(C(=O)c1cc(-c2cc(-c3c(C(F)(F)F)c(C(F)(F)C(F)(F)F)nn3C)cs2)sc1C#N)C1CC1 [Compound 29]", "Thrips tabaci", "≥ 80%"),
    ("CCN(C(=O)c1cc(-c2cn(-c3c(C(F)(F)F)c(C(F)(F)C(F)(F)F)nn3C)nn2)sc1C#N)C1CC1 [Compound 3]", "Thrips tabaci", "≥ 80%"),
    ("Cn1nc(C(F)(F)C(F)(F)F)c(C(F)(F)F)c1-c1cc(-c2cc(C(=O)NC3CC3)c(C#N)s2)on1 [Compound 13]", "Thrips tabaci", "≥ 80%"),
    ("Cn1nc(C(F)(F)C(F)(F)F)c(C(F)(F)F)c1-n1cc(-c2cc(C(=O)NC3CC3)c(C#N)s2)nn1 [Compound 1]", "Thrips tabaci", "≥ 80%"),
    ("Cn1nc(C(F)(F)C(F)(F)F)c(C(F)(F)F)c1-c1cc(-c2cc(C(=O)NC3(C#N)CC3)c(C#N)s2)on1 [Compound 16]", "Thrips tabaci", "≥ 80%"),
]

Inquiry: mortality at 200 ppm lookup needed for CN(C(=O)c1cc(-c2cn(-c3c(C(F)(F)F)c(C(F)(F)C(F)(F)F)nn3C)nn2)sc1Cl)C1(C#N)CC1 [Compound 11] , thanks.
Reply text: ≥ 80%
